Reference for the values: PubChem BioAssay AID489027

target: UPR counterscreen luciferase reporter, luminescence; assay: luciferase reporter activation, UPR counterscreen line – cell-based, luminescence, counter-screen for adaptive UPR activator project, dose response (AID 489027)
Calls of active or inactive are those of the source. The rule behind the calls is not given here.
Outcome (select one): YES = active, NO = inactive

Query string: Called result for COc1ccc(Nc2nc(N)c([N+](=O)[O-])c(NC3CCCCC3)n2)cc1
Result string: NO

Query string: Called result for Cc1nn(-c2ccccc2)c(C)c1/C=N/NC(=O)CSc1nc2ccccc2c(=O)n1-c1ccc(Br)cc1
Result string: YES

Query string: Called result for OCCCn1c(C2CCCN2c2nc(-c3ccc(Cl)cc3)cs2)nc2cc(Cl)c(N3CCCCC3)cc21 (stereo not given)
Result string: NO

Query string: Called result for COc1ccc([N+](=O)[O-])cc1COc1ccc2c(-c3ccccc3)cc(=O)oc2c1
Result string: NO

Query string: Called result for CCOC(=O)c1nnc(-c2ccccc2)nc1Sc1c(Cl)cccc1Cl
Result string: YES

Query string: Called result for CC(C)(C)C(=O)NC(=S)NNC(=O)c1sc2ccccc2c1Cl
Result string: NO

Query string: Called result for O=C1c2cccc3cc(Br)cc(c23)C(=O)N1Nc1ccc(Br)cc1
Result string: NO

Query string: Called result for Cc1ccc(NC(=O)c2nc[nH]c2C(=O)NCCCNC(=O)c2[nH]cnc2C(=O)Nc2ccc(C)cc2)cc1
Result string: NO

Query string: Called result for C=CCN1C(=O)/C(=C2/Sc3ccc(OC)cc3N2C)SC1=Nc1cccc(O)c1
Result string: NO

Query string: Called result for CCOc1ccc(/C=C/C(O)=C2/C(=O)NC3(C)CC2c2ccccc2O3)cc1OC (stereo not given)
Result string: NO

Query string: Called result for C#CCn1c(=NC(=O)c2ccc(Cl)s2)sc2cccc(OC)c21
Result string: NO

Query string: Called result for Cc1ccc(C2=Nc3ccc(Br)cc3C(c3ccncc3)=NN2)cc1
Result string: NO

Query string: Called result for CCc1nn(-c2cc(Oc3cccc4ccccc34)nc(-c3ccccc3)n2)c(N)c1C#N
Result string: NO

Query string: Called result for CN(C)CCCN(C(=O)c1ccc(S(=O)(=O)N2CCc3ccccc3C2)cc1)c1nc2ccc(F)cc2s1
Result string: YES

Query string: Called result for Cn1cc(/C=C(\C#N)C(=O)Nc2cccc([N+](=O)[O-])c2)c2ccccc21
Result string: NO

Query string: Called result for COc1cc(NC(=O)c2ccc(C)cc2C)ccc1NC(=O)c1cc2ccccc2o1
Result string: NO

Query string: Called result for Oc1ccc(Br)cc1/C=N/Nc1ccccn1
Result string: NO

Query string: Called result for CCc1sc2nc(SCC(=O)Nc3cc(C)on3)n(-c3cccc(OC)c3)c(=O)c2c1C
Result string: YES

Query string: Called result for O=C(C[C@H]1C/C=C\C[C@@H](NC(=O)OCC2c3ccccc3-c3ccccc32)C(=O)O[C@@H](c2ccccc2)CNC1=O)N[C@H](CO)Cc1ccccc1
Result string: YES

Query string: Called result for CC(=O)c1cccc(N=Cc2c(O)c3ccccc3oc2=O)c1
Result string: YES

====

molecular target: UPR counterscreen luciferase reporter, luminescence; assay: luciferase reporter activation, UPR counterscreen line – cell-based, luminescence, counter-screen for adaptive UPR activator project, dose response (AID 489027)
The source made the active and inactive calls. No rule for the calls is given here.
Outcome (select one): active, inactive

Query string: Called result for Cc1ccc(NC(=O)CSc2nc3ccccc3c3nc4ccccc4n23)cc1
Result string: active

Query string: Called result for O=C(/C(=N/N=C/c1ccc(O)c(O)c1)c1ccccc1)c1ccccc1
Result string: active

Query string: Called result for CCOC(=O)c1[nH]c2ccc(Cl)cc2c1NC(=O)/C=C/c1ccc2c(c1)OCO2
Result string: inactive

Query string: Called result for Cc1c(NC(=O)CSc2ccc(Cl)cc2)cccc1-c1nc2cc(Cl)ccc2o1
Result string: inactive

Query string: Called result for CCc1ccc(-c2cc(C(F)(F)F)n3nc(C(=O)Nc4cnn(Cc5ccc(C)cc5)c4)cc3n2)s1
Result string: active
